Test: Blocker Index (BI), expert graders, isovaleric acid malodorous swatch
Set-up: key: Blocker Index, 0–3 scale anchored by reference swatches (0 = clean swatch)
Details: Conc 50 ppm

compound | BI
CCOC(=O)OC1C(C)CCC(C)C1C (centres unmarked) [Material 1005] | 2.6
O=C1CCC2CCCCC2O1 (centres unmarked) [3,4,4a,5,6,7,8,8a-octahydrochromen-2-one] | 2.0
CC1(C)C2CCC3(C2)C1C(=O)CCC3(C)C (centres unmarked) [Material 1149] | 2.3
C=CC(C)=CCC=C(C)C [Material 524] | 2.8
CCCCCCCCCCCC(=O)OCC [Material 391] | 2.2
CC(=O)OC1CC2CC1C1CC=CC21 (centres unmarked) [Material 281] | 2.0
CCCCCCCCCCCO [Undecanol] | 2.3
CC(C)(C)C1CCCCC1 [4-tert-butyl cyclohexane] | 2.0
CC(=O)OCCCCCCC(C)C [Material 204] | 2.7
COC(=O)OC1CC/C=C\CCC1 (centres unmarked) [Material 1139] | 2.7
CC1(C)CCc2ccc(CCC=O)cc21 [Material 261] | 1.3

----------
# BI per record follows
Assay: Blocker Index (BI), expert graders, isovaleric acid malodorous swatch
Details: Conc 50 ppm
recorded-metric: BI

compound | reported-result
CC(CCO)CCc1ccccc1 (stereo not shown) | 1.7
C=C1CCC2OC2(C)CCC2C1CC2(C)C (stereo not shown) | 2.3
CCC(O)COC1CCCCC1C(C)(C)C (stereo not shown) | 2.0
CCCCCCCCCCCCO | 2.3
